These measurements were taken from ChEMBL document CHEMBL3297674.

Each record here notes measured pIC50.
assay_name: Cytotoxicity against human SNU638 cells by SRB assay
Format: functional, cell-based
conditions_used: SNU-638
pIC50: −log10 of the molar value.
measure: pIC50

| molecule | measure | endpoint_value |
| --- | --- | --- |
| O=c1[nH]c(=O)n(C2[Se][C@H](CO)[C@@H](O)[C@@H]2O)cc1F (some centres undefined) | pIC50 | 4.22 |
| O=c1ccn(C2[Se][C@H](CO)[C@@H](O)[C@@H]2O)c(=O)[nH]1 (some centres undefined) | pIC50 | < 4.00 |
| O=c1[nH]c(=O)n(C2[Se][C@H](CO)[C@@H](O)[C@@H]2O)cc1Br (some centres undefined) | pIC50 | < 4.00 |
| [N-]=[N+]=N[C@@H]1C(n2cc(Br)c(=O)[nH]c2=O)[Se][C@H](CO)[C@H]1O (single isomer, unassigned; (-)) | pIC50 | < 4.00 |
| [N-]=[N+]=N[C@@H]1C(n2ccc(N)nc2=O)[Se][C@H](CO)[C@H]1O (single isomer, unassigned; (+)) | pIC50 | 4.07 |
| Cc1cn(C2[Se][C@H](CO)[C@@H](O)[C@@H]2O)c(=O)[nH]c1=O (some centres undefined) | pIC50 | < 4.00 |
| O=c1[nH]c(=O)n(C2[Se][C@H](CO)[C@@H](O)[C@@H]2F)cc1I (some centres undefined) | pIC50 | < 4.00 |
| Cc1cn(C2[Se][C@H](CO)[C@@H](O)[C@@H]2F)c(=O)[nH]c1=O (some centres undefined) | pIC50 | 4.11 |
| [N-]=[N+]=N[C@@H]1C(n2cc(F)c(=O)[nH]c2=O)[Se][C@H](CO)[C@H]1O (single isomer, unassigned; (+)) | pIC50 | < 4.00 |
